Data provenance: patent US4072743A

Target: thrombin (Bos taurus)
Construct: purchased Mochida Pharmaceutical Co., Ltd
Test: Fibrinogen coagulation time (thrombin-induced clotting of bovine fibrinogen)
Format: biochemical
Conditions: thrombin 5 units/ml, borate saline buffer pH 7.4, 25° C, normal coagulation time 50-55 seconds prolonged to 100-110 seconds
Procedure: The measurement of the fibrinogen coagulation time was conducted as follows: Immediately after mixing, the reaction mixture was transferred from the ice bath to a bath maintained at 25° C. Coagulation times were taken as the period between the time of transference to the 25° C bath and the time of the first appearance of fibrin threads. […]
parameter.measured: Concentration required to prolong the coagulation time by a factor of two (µM)

stdin: Entry under review: `COCCN(CC(=O)O)C(=O)[C@H](CCCNC(=N)N)NS(=O)(=O)c1cccc2cc(C)c(C)cc12` . Reported Concentration required to prolong the coagulation time by a factor of two?
stdout: 10

1. CCCCN(CC(=O)O)C(=O)[C@H](CCCNC(=N)N)NS(=O)(=O)c1cccc2c(N(C)C)cccc12
2. Cc1ccc2ccc(S(=O)(=O)N[C@@H](CCCNC(=N)N)C(=O)N(CC(=O)O)CC3CCCCC3)cc2c1
3. N=C(N)NCCC[C@H](NS(=O)(=O)c1ccc2c(c1)CCCC2)C(=O)N(CC(=O)O)Cc1ccccc1
stdin: Hey, can you sort those compounds up there by Concentration required to prolong the coagulation time by a factor of two, smallest first? Reply format: the labels, ordered as requested.
stdout: 1, 2, 3
